Origin of measurements: a melting point compilation (Tetko et al.; mined from patent text by program, amines drawn as free bases though some values may be those of a salt)

Reported melting point values for the following molecules.

For orientation, consider the following solved cases.
molecule="CCOC(O)C(F)(F)C(F)(F)C(F)(F)C(F)(F)C(O)OCC (stereo unspecified)" assayresult="110 to 111 °C"
molecule=CN(C)c1ccc(-c2[nH]c(-c3ccc([N+](=O)[O-])cc3)nc2C(=O)Nc2nccs2)cc1 assayresult="250 to 251 °C"
molecule=O=C(NCCCn1ccnc1)C(c1ccccc1)c1ccccc1 assayresult="136 to 138 °C"
molecule=Cc1nc2c(OCc3ccccc3)cc(Br)cc2n1COCC[Si](C)(C)C assayresult="94 to 95 °C"
molecule=Cc1cc(-c2ccccc2)nc(SSc2nc(-c3ccccc3)cc(C)c2C#N)c1C#N assayresult="200 to 201 °C"

Report measured melting point; entry is COC1C(O)C(CO)OC1n1cnc2c(NC3CCCCC3)ncnc21 (stereo unspecified)
88 to 91 °C

---

Recorded melting point for the following compounds

compound="C[N+]([O-])(c1cnccc1[N+](=O)[O-])n1cccc1 (stereo unspecified)" assayresult="135 to 140 °C"
compound="O=C(O)c1cc(S(=O)(=O)N2CCCC(OCc3ccccc3)C2)ccc1Br (stereo unspecified)" assayresult="177 to 178 °C"
compound=Cn1c([N+](=O)[O-])cnc1C=Cc1cccc(C(N)=O)c1 assayresult="254 to 256 °C"

Assign melting point to the following record: Oc1cccc2c1CC=CC2
70.5 to 72 °C

Specify melting point for CCOC(=O)C1=C(COCCNC(=O)n2ccnc2)NC(C)=C(C(=O)OC)C1c1ccccc1Cl (stereo unspecified) and stop.
149 to 151 °C

Name the recorded melting point of the compound listed here: C#CC(OC)Oc1cc(Cc2cnc(N)nc2N)cc(OC)c1OC (stereo unspecified)
153 to 155 °C

---

Listing: melting point of selected molecules

molecule="S=c1[nH]ccn1C1CCc2ccccc2C1 (stereo unspecified)" assayresult="233 to 234 °C"

Give me measured melting point, please, for this molecule: CCCCCCCCCCC(C)(C)NC(=O)Nc1cc(OC)cc(C(C)(C)C)c1O
99 to 102 °C

---

melting point: recorded values

Here's what some known entries look like.
compound="COC(=O)C(OC)c1nsc2ccc(-n3c(=O)cc(C(F)(F)F)n(C)c3=O)cc12 (stereo not given)" assayresult="166 to 168 °C"
compound=CCC(CC)c1ccc(Cl)c2nc3n(c12)CCCCN3c1cnc(N2CCCC2)cc1C assayresult="160 to 161 °C"

Supply reported melting point belonging to this compound: CCCCc1cccc2c3c([nH]c12)C(CC)(CC(=O)O)CCC3 (stereo not given)
131 to 134 °C

State, in one line, measured melting point of N#CC(c1ccc(F)cc1)c1ccc([N+](=O)[O-])cc1C(F)(F)F (stereo not given)
68 °C

Quick one: give measured melting point for N#Cc1cc(N)ccc1N1CCC(OC(=O)c2ccccc2)CC1
154 to 155 °C

---

assayReadout: melting point

Known results for compounds:
compound=CS(=O)(=O)c1ccc(C=Cc2ccc(NCCCCCCO)cc2)cc1 assayreadout="melting point" assayresult="113 to 115 °C"
compound=CC(=O)OCc1ccc2oc(=O)c(C(=O)Oc3ccccc3C#N)cc2c1 assayreadout="melting point" assayresult="181 to 183 °C"
compound="CC(C)[C@H](O)[C@@H](CCCCOc1cc(F)ccc1F)n1nc[nH]c1=S (racemic)" assayreadout="melting point" assayresult="97 °C"

Tell me measured melting point for Cc1csc(N2CCN(Cc3ccc(C(F)(F)F)cc3)C2=O)n1 please.
102 to 103 °C

Provide melting point value for the following compound: O=c1[nH]c2cc(Cl)ccc2n1C1CCN(CC2=NOC(c3ccc(F)cc3)C2)CC1 (single isomer, unassigned; (-))
143 to 145 °C

Quick one: give measured melting point for Cc1ccc(S(=O)(=O)Nc2ccc3nnc(C(=O)O)c(O)c3c2)cc1
272 to 273 °C

Annotate the compound Cc1ccc(C(O)c2ccc(N)cc2)nc1 (centres undefined) with its measured melting point.
114 to 115 °C

---

assayReadout: melting point

Worked cases, answers included:
compound="O=C1CN(c2ccc(C(Br)C(Br)c3ccccc3)cc2OCc2ccccc2)S(=O)(=O)N1 (stereo not given)" assayresult="173 to 175 °C"
compound=O=C(NCc1ccn(C2=CC3=C(CC2)CCc2[nH]c(=O)c(=O)n(O)c23)c1)Nc1ccccc1 assayresult="> 250 °C"
compound=C#CCOc1ccc2cnn(C[C@H](C)NC(=O)OCc3ccccc3)c2c1 assayresult="104 to 106 °C"

Query melting point for COC(=O)c1cc(OCc2nc(-c3ccccc3)oc2C)no1
123 to 124 °C

Assign melting point to the following record: CC(Oc1ccccc1Cl)c1nnc(N)s1 (stereo not given)
160 to 164 °C

---

Listed below: melting point values for each entry.

A selection of reference data follows.
compound=O=C(Nc1ccccc1)C1=C(N2CCCCC2)COC1=O assayreadout="melting point" assayresult="157 to 158 °C"
compound=CS(=O)(=O)CC(=O)c1ccc(Cl)cc1 assayreadout="melting point" assayresult="132 to 137 °C"

Query melting point for COc1cc2ncnc(N3CCC(C(C)(O)CN4CCC(C)NS4(=O)=O)CC3)c2cc1OC (stereo unspecified)
186 to 188 °C

Read off the recorded melting point for O=c1[nH]c2ccccc2c2nc(-c3ccc(Cl)cc3)nn12
315 to 318 °C

Using known records, supply melting point for NC1=CC(N)=NCN1C(=O)OCc1ccccc1
194 °C

Query melting point for CC(C)C=C(C=NO)c1ccccc1
107 to 110 °C

Identify melting point associated with the compound CNC1NC(=O)N(c2ccccc2)C(=O)N1N (stereo unspecified)
242 to 244 °C

Please give the documented melting point of COC(=O)c1cncc(OC2SCC(O)C(O)C2O)c1 (stereo unspecified)
137 °C

Give melting point for CNC(=O)c1cc2ccccc2c(-c2cccc(I)c2)n1
172 to 174 °C

Identify melting point associated with the compound CCOC(OCC)c1cc(=O)[nH]c(N)n1
198 to 203 °C

In one line, give reported melting point of the entry CCCc1ccc(S(=O)(=O)Nc2ccc3nc(C)cnc3c2)cc1 .
136 °C

---

Each record here notes measured melting point.

# count of solved cases: 5
compound="COC(=O)C1CCc2nc(N)sc2C1 (stereo unspecified)" assayresult="148 to 168 °C"
compound=CC(N)=CC(=O)c1cccnc1 assayresult="82 °C"
compound=O=C(CN1CC(F)(F)Cn2c1nc(-c1ccncn1)cc2=O)c1ccccc1 assayresult="233 to 234 °C"
compound=O=C(Nc1ccc(CNc2nc(N3CCC3)nc3ccccc23)cc1)c1ccc(F)cc1 assayresult="249 °C"
compound=Cc1c(C)c2c(c(C)c1NC=O)CC(C)(C)O2 assayresult="177 to 179 °C"

Query melting point for O=C(Nc1nnco1)C1c2ccccc2Oc2ccccc21
239 to 240 °C

State, in one line, measured melting point of CSCC1Cc2cc(C)c3[nH]c(=O)ccc3c2O1 (stereo unspecified)
203 to 206 °C

Complete the entry with melting point for CN1CCc2c(sc3ncn(CCCl)c(=O)c23)C1
159 to 161 °C

State, in one line, measured melting point of CS(=O)(=O)c1nc2ncc(Cl)cc2s1
201 to 202 °C

Respond only with melting point recorded for CC(C)C[C@@H](C#N)NC(=O)[C@@H]1CCCC[C@@H]1NC(=O)c1cc2ccccc2n1CC(C)(C)O
102 to 106 °C

Identify the reported melting point for the following entry. NC(=NCC(F)(F)F)Nc1ccnc(CCCCc2nc(O)n[nH]2)n1
209 to 210 °C

---

assayReadout: melting point

Example compounds with recorded melting point:
compound=COc1cc(N)c(Cl)cc1C(=O)NCC1CCN(CCCCCC(=O)c2ccc(Cl)cc2)CC1 assayresult="156 to 158 °C"
compound="Cc1nc(C(O)c2ccc(Cl)cc2)sc1C (stereo unspecified)" assayresult="107 °C"

Please report melting point for the following compound: COc1ccc(OC2c3cc(C#N)ccc3OC(C)(C)C2O)nn1 (stereo unspecified)
224 to 227 °C

Return melting point for the following compound: O=C(O)/C=C1\CCc2c(F)cc(Cl)cc21
254 to 256 °C

Give melting point for CS(=O)(=O)c1ccc(-n2nc(C(F)(F)F)cc2-c2ccc(-c3ccoc3)cc2)cc1F
74 to 76 °C

---

This listing pairs compounds with measured melting point.

Worked examples, 3 compounds total:
compound=COC(=O)C(F)(F)C1(C(F)(F)C(=O)OC)OCCO1 assayreadout="melting point" assayresult="66.5 to 67.5 °C"
compound="CC(C)C(=O)NC1CCc2[nH]c3cc4c(cc3c2C1)OCO4 (centres undefined)" assayreadout="melting point" assayresult="198 to 200 °C"
compound=CN(C)C(=S)Nc1ccccc1N1CCOCC1 assayreadout="melting point" assayresult="150 to 152 °C"

For the compound COC1CC2C3CCC4=CC(=O)CCC4(C)C3(F)C(O)CC2(C)C1(OC(C)=O)C(=O)CCl (centres undefined) , report melting point.
243 to 245 °C

Please report the measured melting point for C[C@]12CCC(=O)N[C@@H]1CCc1cc(Sc3cccc4cccnc34)ccc12
> 260 °C

Supply reported melting point belonging to this compound: O=C(CCCCCc1ccccc1)NNC(=O)c1ccc(O)cc1
155 to 160 °C

Give melting point for the following compound: OC(c1ccccc1)c1ccc(-c2ccccc2)cc1 (centres undefined)
72 to 73 °C
